B1: Bone marrow stromal antigen 2 (Homo sapiens), Q10589 (parent)
chain: MASTSYDYCRVPMEDGDKRCKLLLGIGILVLLIIVILGVPLIIFTIKANSEACRDGLRAVMECRNVTHLLQQELTEAQKGFQDVEAQAATCNHTVMALMASLDAEKAQGQKKVEELEGEITTLNHKLQDASAEVERLRRENQVLSVRIADKKYYPSSQDSSSAAAPQLLIVLLGLSALLQ
partner: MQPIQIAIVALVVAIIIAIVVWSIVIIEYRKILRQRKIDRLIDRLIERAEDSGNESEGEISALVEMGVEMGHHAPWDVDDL

# Variants of: B1
# run parameters: with vpu_hv1b1 vpu, P69699
quantity kind: effect of a mutation on the interaction

> print(dat)
   variant.designation                            quantity.kind          measured.value
1                 L37A  effect of a mutation on the interaction  disrupting interaction
2                 I34A  effect of a mutation on the interaction  disrupting interaction
3                 L41A  effect of a mutation on the interaction  disrupting interaction
